Sourced from PubChem BioAssay AID1963822

Attribute: z-score
- assay.protocol: growth inhibitors of anaerobic choline-fed gram-negatives, minimal medium, absorbance (AID 1963822)
- setup.conditions: Gram-negative bacterium anaerobic choline minimal medium, measured here: choline growth z-score, timepoint 1, stronger effect = lower value
Among all 55,000 compounds or so, about 90 (0.2%) were called active. The sample as a whole holds a higher share of actives than the screen did.
Number, no unit, nothing else.

Some solved entries appear below for comparison.
[
  {
    "compound": "O=C(COc1ccccc1)Nc1noc(-c2ccc(Cl)cc2)n1",
    "value.observed": -0.68
  },
  {
    "compound": "Cc1cc(C)c2nc(C)cc(C(=O)NC3CC3)c2c1",
    "value.observed": 0.53
  },
  {
    "compound": "O=C(CSc1ccccc1)N1CCN(Cc2cc(=O)n3nc(-c4ccccc4F)sc3n2)CC1",
    "value.observed": 0.13
  },
  {
    "compound": "COc1ccc(-c2nn(-c3ccccc3)cc2C2CC(c3ccccc3)=NN2S(C)(=O)=O)cc1 (configuration not stated)",
    "value.observed": 0.97
  },
  {
    "compound": "CCOC(=O)C1CCCN(C(=O)Cn2c(=O)c3ccccc3n3c(=S)sc(-c4ccccc4)c23)C1 (configuration not stated)",
    "value.observed": 0.36
  },
  {
    "compound": "CC(C)c1nnc(-c2cc3ccccc3n2CC(=O)N(C(C)C)C(C)C)o1",
    "value.observed": 0.05
  },
  {
    "compound": "Cc1ccc(C)c(Cn2cccc(S(=O)(=O)N3CCCC3)c2=O)c1",
    "value.observed": 0.96
  },
  {
    "compound": "CCOc1ccc(S(=O)(=O)NC(C)C)cc1-c1nc(C)no1",
    "value.observed": -1.19
  },
  {
    "compound": "Cc1cccc(C2C3=C(CC(c4ccccc4)CC3=O)Nc3onc(C)c32)c1 (configuration not stated)",
    "value.observed": 1.45
  },
  {
    "compound": "CCCn1c(=O)c2ccccc2n2c(=O)n(CC(=O)c3ccc(C)cc3C)nc12",
    "value.observed": -0.89
  }
]

Req: Data request, read-out z-score, for Cc1[nH]nc2c1C(C(=O)c1cccc(Cl)c1)CC(=O)N2 (configuration not stated)
Resp: 0.1

Req: What do you get for "Cc1cccc(-c2nn3c(=O)cc(CN4CCN(C(=O)c5cccc(Br)c5)CC4)nc3s2)c1" ?
Resp: 0.71
